# Tested on: DU-145
# ASSAY EXPLANATION: Cytotoxicity against human DU145 cells after 72 hrs by MTT assay
# Format: functional, cell-based
# MEASUREMENT CONDITIONS: DU-145, 72 h
Please go through the items and note down their IC50.
Numbers only, in µg/mL.

# CPD SMILES, SYSTEM, IC50 [µg/mL]
measured = [
    ("C[C@]12CC[C@H](O)C[C@H]1CC[C@@H]1[C@@H]2C[C@@H](O)[C@]2(C)[C@@H](c3ccc(=O)oc3)C[C@H]3O[C@]132", "DU-145", 0.041),
    ("C[C@]12CC[C@H](OC=O)C[C@H]1CC[C@@H]1[C@@H]2CC[C@]2(C)[C@@H](c3ccc(=O)oc3)C[C@H]3O[C@]132", "DU-145", 0.42),
]

The measured IC50 associated with CC(=O)O[C@H]1[C@H]2O[C@]23[C@@H]2C[C@H](O)[C@@H]4C[C@@H](O)CC[C@]4(C)[C@H]2CC[C@]3(C)[C@H]1c1ccc(=O)oc1 reads 0.21
